These measurements were taken from ChEMBL document CHEMBL3991941.

tested on: Mus musculus; assay: Antiinflammatory activity in C3H mouse model of thioglycollate-induced lymphocyte recruitment assessed as decrease in blood neutrophils at 30 mg/kg, po dosed 15 mins before thioglycollate stimulation by Beckman Coulter counting based cell counting method relative to untreated control; format: functional; parameters: scale not given: the % may be the effect or the level left
readout: Activity

In: // returns reported Activity for input CCCCCCN(Cc1ccc(C#Cc2ccc(CCC)cc2)cc1)c1ccc(F)c(C(=O)O)c1
Out: -6%

In: // returns reported Activity for input CCCCCCc1ccc(C#Cc2ccc(CN(Cc3ccc(C(F)(F)F)cc3)C(=O)C(=O)O)cc2)cc1
Out: 27%

In: // returns reported Activity for input CCCCc1ccc(C#Cc2ccc(CN(CC3CCCC3)c3ccc(F)c(C(=O)O)c3)cc2)cc1
Out: 36%

In: // returns reported Activity for input CCCCCCc1ccc(C#Cc2ccc(CN(C(=O)C(=O)O)C(C)(C)c3cccc(Cl)c3)cc2)cc1
Out: 25%

In: // returns reported Activity for input O=C(O)C(=O)N(Cc1ccc(C#CCCCCCCCCCF)cc1)Cc1ccc(C(F)(F)F)cc1
Out: 16%

In: // returns reported Activity for input CCCCCCN(Cc1ccc(C#Cc2ccc(CCCC)cc2)cc1)c1ccc(C(=O)O)c(O)c1
Out: 45%

In: // returns reported Activity for input CCCCCCN(Cc1ccc(C#Cc2ccc(C(C)(C)C)cc2)cc1)c1ccc(F)c(C(=O)O)c1
Out: 36%

In: // returns reported Activity for input CCCCCCN(Cc1ccc(F)c(C(=O)O)c1)c1ccc(C#Cc2ccc(CCCC)cc2)cc1
Out: 28%

In: // returns reported Activity for input CCCCCCc1ccc(C#Cc2ccc(N(Cc3ccc(C(F)(F)F)cc3)C(=O)C(=O)O)cc2)cc1
Out: 15%

In: // returns reported Activity for input CCCCCCN(Cc1ccc(C#Cc2ccc(CCCC)cc2)cc1)c1ccc(O)c(C(=O)O)c1
Out: 44%

In: // returns reported Activity for input CCCCCCN(Cc1ccc(C#Cc2ccc(CCCC)cc2)cc1)C(=O)c1ccc(O)c(C(=O)O)c1
Out: 41%
